assay info: TLR3 IRF3 reporter activation blockers – cell-based, poly I:C stimulus, luciferase, 10K MLSCN set, primary screen (AID 602277)
run parameters: HEK293-TLR3 RL24 IRF3 luciferase reporter, at 10 µM, stronger effect = higher value
Record condition met whenever inhibition is at 10% or higher; record condition not met when lower.

- molecule: "CCCCC(=NCCO)C1=C(O)C(C(=O)OC)C(C)(C)CC1=O (configuration not stated)"
  group label: "condition met"
- molecule: "CC1(C)Cc2noc(N)c2C(C)(C)N1OC(=O)c1ccco1"
  group label: "condition met"
- molecule: "COc1ccc(C2CC(=O)c3cnc(NC(=O)c4ccccc4OC)nc3C2)c(OC)c1 (configuration not stated)"
  group label: "condition not met"
- molecule: "CCOCCCNCC(=O)N1CCN(S(=O)(=O)c2ccc(C)cc2)CC1"
  group label: "condition met"
- molecule: "O=C(NCc1ccco1)Nc1ccc2nsnc2c1"
  group label: "condition not met"
- molecule: "COc1ccc2nc(C)cc(N3CCOCC3)c2c1"
  group label: "condition met"
- molecule: "COc1ccc(-c2noc(CN3CCC(Cc4ccccc4)CC3)n2)cc1"
  group label: "condition not met"
- molecule: "CC(=O)c1c(C)nc(C)nc1NC(=O)Cc1ccccc1"
  group label: "condition met"
- molecule: "O=C1COc2ccc(C(=O)NCc3ccco3)cc2N1"
  group label: "condition not met"
- molecule: "CNCCC(Oc1ccc(C(F)(F)F)cc1)c1ccccc1 (configuration not stated)"
  group label: "condition met"
- molecule: "CCCCNC(=O)c1c(C)cc(=O)oc1C"
  group label: "condition met"

====

Catalogue of z-score values
assay info: Primary imaging screen for DUSP6 inhibitors that restore phospho-Erk in transfected HeLa cells, chemical complementation (AID 609)
run parameters: HeLa MKP-3 transfected, phospho-Erk imaging KS statistic; measured here: cell density z-score; at 10 µM; cells stimulated with TPA for 15 min

- molecule: "COc1cc(C2C(C#N)=C(N)Oc3cc(N)ccc32)cc(OC)c1OC (centres undefined)"
  z-score: 0.957
- molecule: "CC(=O)O[C@@]12CO[C@@H]1C[C@H](O)[C@@]1(C)C(=O)[C@H](O)C3=C(C)[C@@H](OC(=O)[C@H](O)[C@@H](NC(=O)OC(C)(C)C)c4ccccc4)C[C@](O)([C@@H](OC(=O)c4ccccc4)[C@H]21)C3(C)C"
  z-score: -1.36
- molecule: "O=C(Oc1ccccc1)c1c(Cl)cccc1P(=O)(O)O"
  z-score: -1.16
- molecule: "Cc1ccc(N2CN=c3s/c(=C\\c4cccnc4)c(=O)n3C2)cc1"
  z-score: -0.873

====

Catalogue of nuclei count values
assay info: endothelial E-selectin expression blockers – imaging, HUVEC, immunofluorescence, MLSMR starter and 10KST1 sets, primary screen (AID 487);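 note: 100% = median nuclei count of all wells on the same plate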
run parameters: HUVEC TNFalpha-induced E-selectin immunofluorescence imaging, at 2 µM; measured here: cell number, toxicity
value type: nuclei count (%)

- compound: "CCNC(=O)N1c2ccc(OCC)cc2C(C)=CC1(C)C"
  measurement unit: "%"
  reported: 102
- compound: "O=C(Cn1c(=O)[nH]c2ccsc2c1=O)NC1CCCCCC1"
  measurement unit: "%"
  reported: 107
- compound: "O=C(O)COc1ccc2occ(C(=O)c3ccccc3)c2c1"
  measurement unit: "%"
  reported: 104
- compound: "CCCOc1nc(N)c(C#N)c(-c2ccccc2F)c1C#N"
  measurement unit: "%"
  reported: 99.6
- compound: "CC1CCc2cc(F)cc3c(=O)c(C(=O)O)cn1c23 (configuration not stated)"
  measurement unit: "%"
  reported: 114
- compound: "COc1ccc(CN(C(=O)c2ccccc2OC)C2CCS(=O)(=O)C2)cc1 (configuration not stated)"
  measurement unit: "%"
  reported: 109
- compound: "COc1ccc(C(=O)C2CCCCC2=O)cc1 (configuration not stated)"
  measurement unit: "%"
  reported: 127
- compound: "c1c2c(cc3sc(N4CCCCC4)nc13)OCCO2"
  measurement unit: "%"
  reported: 88.9
- compound: "CC1CN(CC(O)COc2ccc(C(C)C)cc2)CC(C)O1 (configuration not stated)"
  measurement unit: "%"
  reported: 140
- compound: "O=c1[nH]c2c(s1)C(c1ccco1)C1C3CCC(C3)C1S2 (configuration not stated)"
  measurement unit: "%"
  reported: 108
- compound: "CC(=O)OCC(=O)[C@@]1(O)CC[C@H]2[C@@H]3CCC4=CC(=O)C=C[C@]4(C)[C@H]3[C@@H](O)C[C@@]21C"
  measurement unit: "%"
  reported: 130
- compound: "CC1(C)CC(=O)c2cc(OCC(=O)N3CCN(c4ccccc4F)CC3)ccc2O1"
  measurement unit: "%"
  reported: 118
- compound: "O=C(C1CC1)N1CCc2cc(S(=O)(=O)N(CCO)Cc3ccccc3)ccc21"
  measurement unit: "%"
  reported: 122
- compound: "N#Cc1c(N)nc(SCc2ccncc2)c(C#N)c1-c1cccs1"
  measurement unit: "%"
  reported: 107
- compound: "OCc1nc2ccccc2n1CC(O)Cn1ccc2ccccc21 (configuration not stated)"
  measurement unit: "%"
  reported: 117
- compound: "Cn1nnnc1SCC(=O)Nc1ccccc1C(=O)NCc1ccccc1"
  measurement unit: "%"
  reported: 124
- compound: "O=C(CSc1ccc(Cl)cc1)OCc1nnc(-c2ccccc2)o1"
  measurement unit: "%"
  reported: 115
- compound: "O=C(CN1C(=O)C2CC=C(Cl)CC2C1=O)Nc1ccc(C(=O)O)cc1 (configuration not stated)"
  measurement unit: "%"
  reported: 122
- compound: "Cc1cc(-c2ccccc2)c2nncn2n1"
  measurement unit: "%"
  reported: 107
- compound: "CCCCCCC(=O)c1c(C)[nH]c(C(=O)OCC)c1C"
  measurement unit: "%"
  reported: 102
- compound: "CC(C)OC(=O)CSc1nnnn1-c1ccc2c(c1)OCCO2"
  measurement unit: "%"
  reported: 118
- compound: "COC(=O)Cn1cnc2c(nnn2-c2ccc(C)cc2)c1=O"
  measurement unit: "%"
  reported: 106
- compound: "COC(=O)CN(c1ccc2c(c1)OCO2)S(C)(=O)=O"
  measurement unit: "%"
  reported: 49.1
- compound: "CC1CCN(C(=S)c2ccccc2O)CC1"
  measurement unit: "%"
  reported: 121
- compound: "COc1cc2nc(N3CCN(C(=O)C4CCCO4)CC3)nc(N)c2cc1OC (configuration not stated)"
  measurement unit: "%"
  reported: 105
- compound: "Nc1nc(C(=O)N2CCOCC2)nn1S(=O)(=O)c1ccc(Cl)cc1"
  measurement unit: "%"
  reported: 145
- compound: "O=C(NCc1ccco1)c1cc2c(s1)CSC2"
  measurement unit: "%"
  reported: 118
- compound: "COC(=O)c1oc2ccc(Br)cc2c1NC(=O)CN1CCN(C)CC1"
  measurement unit: "%"
  reported: 85.6
- compound: "CCOc1cc2[nH]c(=O)n(CCCCC(=O)N3CCCCCC3)c(=O)c2cc1OCC"
  measurement unit: "%"
  reported: 89.8
- compound: "CCSc1nnc(NC(=O)CSc2ncccn2)s1"
  measurement unit: "%"
  reported: 111
- compound: "COc1ccccc1Nc1nc(N)nc(CN2CCN(c3ccccc3F)CC2)n1"
  measurement unit: "%"
  reported: 97.6
- compound: "CCN1C(=O)N(CC)C2C1N(C(C)=O)C(=O)N2C(C)=O (configuration not stated)"
  measurement unit: "%"
  reported: 117
- compound: "CCCC(=O)Nc1ccccc1NC(=O)CN(C)S(=O)(=O)c1ccc(C)cc1"
  measurement unit: "%"
  reported: 83.4
- compound: "COc1cc(OC)cc(-c2nnc(Nc3nc4c(F)cccc4s3)o2)c1"
  measurement unit: "%"
  reported: 92.1
- compound: "Cc1ccc(S(=O)(=O)N2CCCC2C(=O)OCc2ccco2)cc1 (configuration not stated)"
  measurement unit: "%"
  reported: 102
- compound: "CCn1c(COc2cccc3ccccc23)nnc1SCC(N)=O"
  measurement unit: "%"
  reported: 124
- compound: "COC(=O)Cn1c(C)nc2c(sc3nc(C)cc(C)c32)c1=O"
  measurement unit: "%"
  reported: 100
- compound: "CC(C(=O)NC1CCCCCC1)N(c1ccccc1)S(C)(=O)=O (configuration not stated)"
  measurement unit: "%"
  reported: 97
- compound: "CCc1c(C)nc(N)n2c(SCC(=O)N3CCCc4ccccc43)nnc12"
  measurement unit: "%"
  reported: 147
- compound: "CCC(C)NC(=O)C1(C)CCC(=O)N1Cc1ccccc1OC (configuration not stated)"
  measurement unit: "%"
  reported: 93.9
- compound: "CCOC(=O)c1[nH]c(C)c(C(=O)Nc2ccccc2F)c1C"
  measurement unit: "%"
  reported: 94.5
- compound: "CCOC(=O)c1cccc(NC(=O)Cn2cnc3c2c(=O)n(C)c(=O)n3C)c1"
  measurement unit: "%"
  reported: 114
- compound: "COc1ccccc1N1CCN(CCCNC(=O)Nc2ccccc2)CC1"
  measurement unit: "%"
  reported: 106
- compound: "c1ccc2c3nnc4n(c-3nc2c1)CCCS4"
  measurement unit: "%"
  reported: 112
- compound: "CC1(C)C2CCC1(CS(=O)(=O)NCc1ccc(C(=O)O)cc1)C(=O)C2 (configuration not stated)"
  measurement unit: "%"
  reported: 100
- compound: "COc1ccccc1-c1c(C)nn2c(N3CCC4(CC3)OCCO4)cc(C)nc12"
  measurement unit: "%"
  reported: 111
- compound: "CCn1c(CCNC(=O)c2ccc(OC)c(OC)c2)nc2ccccc21"
  measurement unit: "%"
  reported: 88.5

Data provenance is PubChem BioAssay.
